All values here come from the kinase profiling compilation of Christmann-Franck et al. (2016).

Study system: RPS6KA5 KD2 (human) (UniProt O75582)
Sequence (O75582 whole entry, looked up): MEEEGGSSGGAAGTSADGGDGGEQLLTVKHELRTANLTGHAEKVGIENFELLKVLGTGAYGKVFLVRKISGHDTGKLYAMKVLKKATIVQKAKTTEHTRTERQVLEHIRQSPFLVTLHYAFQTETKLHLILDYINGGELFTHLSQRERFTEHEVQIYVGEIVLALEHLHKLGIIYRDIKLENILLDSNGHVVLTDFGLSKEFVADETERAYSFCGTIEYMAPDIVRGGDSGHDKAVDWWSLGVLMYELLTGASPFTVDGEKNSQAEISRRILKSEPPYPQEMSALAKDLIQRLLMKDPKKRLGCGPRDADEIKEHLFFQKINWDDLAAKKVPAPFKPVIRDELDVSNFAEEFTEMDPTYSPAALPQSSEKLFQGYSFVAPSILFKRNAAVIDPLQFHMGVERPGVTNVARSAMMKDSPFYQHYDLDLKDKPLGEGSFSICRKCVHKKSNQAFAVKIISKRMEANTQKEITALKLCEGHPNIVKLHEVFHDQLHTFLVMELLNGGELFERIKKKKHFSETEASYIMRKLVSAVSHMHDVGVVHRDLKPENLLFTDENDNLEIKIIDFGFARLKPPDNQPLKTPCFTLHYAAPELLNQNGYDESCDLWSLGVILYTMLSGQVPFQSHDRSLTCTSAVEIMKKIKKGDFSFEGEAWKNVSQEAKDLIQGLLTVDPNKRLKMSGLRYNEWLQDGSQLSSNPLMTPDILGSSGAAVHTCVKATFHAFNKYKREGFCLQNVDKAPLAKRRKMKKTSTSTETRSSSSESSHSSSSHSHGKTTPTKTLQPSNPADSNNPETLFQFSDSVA
Assay: radiometric filter-binding kinase assay, Kinase HotSpot
Protocol conditions: compound 0.5 µM; ATP 10 µM

>  <Compound>
Nc1nnc2[nH]c3ccccc3nc1-2

>  <residual activity>
92.4%

$$$$
>  <Compound>
O=C1Nc2ccccc2/C1=C1/Nc2ccccc2/C1=N\OCCC(O)CO (stereo unspecified)

>  <residual activity>
37.5%

$$$$
>  <Compound>
CCn1cnc2c(Nc3cccc(Cl)c3)nc(N[C@@H]3CCCC[C@@H]3N)nc21

>  <residual activity>
87.8%

$$$$
>  <Compound>
COc1cc2ncnc(N3CCN(C(=O)Nc4ccc(Oc5ccccc5)cc4)CC3)c2cc1OC

>  <residual activity>
96.4%

$$$$
>  <Compound>
O=C1Nc2ccccc2/C1=C1\Nc2ccccc2\C1=N/O

>  <residual activity>
67%

$$$$
>  <Compound>
O=C1NC(=O)C(c2cn(CCCO)c3ncccc23)=C1c1cnccn1

>  <residual activity>
73.9%

$$$$
>  <Compound>
CN(C)C[C@H]1CCn2c(c(C3=C(c4cn(C)c5ccccc45)C(=O)NC3=O)c3ccccc32)C1

>  <residual activity>
24.8%

$$$$
>  <Compound>
Cn1sc(=O)n(Cc2ccccc2)c1=O

>  <residual activity>
108%

$$$$
>  <Compound>
Cn1nc2c3c(cccc31)C(=O)c1ccccc1-2

>  <residual activity>
100%

$$$$
>  <Compound>
COc1cc2ncc(-c3ccccc3)nc2cc1OC

>  <residual activity>
91.8%

$$$$
>  <Compound>
Oc1ccc(Nc2nc(-c3ccc(Cl)cc3)cs2)cc1

>  <residual activity>
109%

$$$$
>  <Compound>
O=C1NC(=O)/C(=C\c2ccc3nccnc3c2)S1

>  <residual activity>
87.8%

$$$$
>  <Compound>
CC(C)c1nn(-c2c(Cl)cccc2Cl)c2nc(Cc3ccc(OCCO)cc3)nc(O)c12

>  <residual activity>
85.6%

$$$$
>  <Compound>
CC(C)[C@H](CO)Nc1nc(Nc2cc(N)cc(Cl)c2)c2ncn(C(C)C)c2n1

>  <residual activity>
103%

$$$$
>  <Compound>
CCN(CC)CCCCN1c2ccccc2Oc2ccc(Cl)cc21

>  <residual activity>
107%

$$$$
>  <Compound>
O=C(O)/C=C/c1cc(Br)c(Br)c(Br)c1Br

>  <residual activity>
88.3%

$$$$
